- STUDY TARGET: T1, Human CD137 ECD (human)
- T1 construct: entry includes C-terminal His-tag and biotin acceptor peptide; also called human CD137 extracellular domain; 4-1BB
- T1 sequence (chain, as listed by the source limits assumed): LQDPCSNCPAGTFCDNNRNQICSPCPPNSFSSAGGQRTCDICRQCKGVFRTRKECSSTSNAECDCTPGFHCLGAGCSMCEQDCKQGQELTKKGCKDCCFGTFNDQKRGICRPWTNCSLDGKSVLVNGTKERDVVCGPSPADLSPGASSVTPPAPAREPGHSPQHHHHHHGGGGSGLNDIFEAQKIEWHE
- PROCEDURE SUMMARY: Biacore SPR, vs parent H183/L072
Decide using fold change of affinity: a value greater than or equal to 0.1 fold is true (1), a smaller one is false (0).

Ask | Answer whether fold change of affinity of H183/L072 VL A89F (antibody, name in Kabat numbering, V domains shown, Dual-Ig) VH: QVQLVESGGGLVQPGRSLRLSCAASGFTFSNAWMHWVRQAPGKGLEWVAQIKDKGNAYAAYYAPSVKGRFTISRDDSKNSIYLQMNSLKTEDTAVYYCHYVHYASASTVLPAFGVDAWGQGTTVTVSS VL: DIVMTQSPLSLPVTPGEPASISCQASQELVHMNRNTYLHWYQQKPGQAPRLLIYKVSNRFPGVPDRFSGSGSGTDFTLKISRVEAEDVGVYYCFQGTSVPFTFGQGTKLEIK is greater than or equal to 0.1 fold.
Reply | false (0)

The values you see were collected from patent US20210388087A1.
